Assay: Presaturation equilibrium dialysis, fraction unbound in human plasma
Format: in vitro ADME
Parameters: dose or concentration left out as unconfirmed
Conditions: human, 37 °C, value (CV), read-out: Fraction Unbound (fu) and Coefficient of Variance (CV), Human Plasma
measured endpoint: fraction unbound at 18 h
One number for each entry.

### Prompt Report measured fraction unbound at 18 h; entry is NS(=O)(=O)C(F)(F)C(F)(F)C(F)(F)C(F)(F)C(F)(F)C(F)(F)C(F)(F)C(F)(F)F [PFOSA, perfluorooctanesulfonamide]
### Response 0.0019

###

Tested on: mouse (CD-1) plasma
Assay: Presaturation equilibrium dialysis, fraction unbound in CD-1 mouse plasma
Format: in vitro ADME
Settings: 5 μM PFAS, 18 h, 37 °C, value (CV)
measured endpoint: Fraction Unbound (fu) and Coefficient of Variance (CV), CD-1 Plasma

Solved entries:
| molecule | study system | measured result |
| --- | --- | --- |
| O=C(O)C(F)(F)C(F)(F)C(F)(F)C(F)(F)C(F)(F)C(F)(F)C(F)(F)C(F)(F)C(F)(F)C(F)(F)F | mouse (CD-1) plasma | 0.000524(15%) |
| O=C(O)C(F)(F)C(F)(F)C(F)(F)C(F)(F)C(F)(F)C(F)(F)C(F)(F)C(F)(F)C(F)(F)F | mouse (CD-1) plasma | 0.0015(4%) |
| O=S(=O)(O)CCC(F)(F)C(F)(F)C(F)(F)C(F)(F)C(F)(F)C(F)(F)F [6:2 FtS, 6:2 fluorotelomer sulfonate] | mouse (CD-1) plasma | 0.0255(2%) |
| O=C(O)C(F)(F)C(F)(F)C(F)(F)C(F)(F)C(F)(F)F | mouse (CD-1) plasma | 0.169(5%) |

// each molecule listed below needs its Fraction Unbound (fu) and Coefficient of Variance (CV), CD-1 Plasma
1. O=S(=O)(O)C(F)(F)C(F)(F)C(F)(F)C(F)(F)F
2. O=C(O)C(F)(F)C(F)(F)C(F)(F)C(F)(F)F
3. O=C(O)C(F)(F)C(F)(F)C(F)(F)F
4. O=C(O)C(F)(F)C(F)(F)C(F)(F)C(F)(F)C(F)(F)C(F)(F)C(F)(F)C(F)(F)F

### Response
1: 0.261(7%); 2: 0.609(4%); 3: 0.757(6%); 4: 0.00455(6%)

###

Assay: Presaturation equilibrium dialysis, fraction unbound in CD-1 mouse plasma
Assay type: in vitro ADME
Design: dose or concentration left out as unconfirmed
Details: 37 °C, value (CV), read-out: Fraction Unbound (fu) and Coefficient of Variance (CV), CD-1 Plasma
measured endpoint: fraction unbound at 18 h
Give bare numbers.

| compound | fraction unbound at 18 h |
| --- | --- |
| O=C(O)C(F)(F)C(F)(F)C(F)(F)C(F)(F)C(F)(F)C(F)(F)F [PFHpA, perfluoroheptanoic acid] | 0.0331 |

Please turn your attention to the following entry.
### Prompt Report measured fraction unbound at 18 h; entry is NS(=O)(=O)C(F)(F)C(F)(F)C(F)(F)C(F)(F)C(F)(F)C(F)(F)C(F)(F)C(F)(F)F [PFOSA, perfluorooctanesulfonamide]
### Response 0.00326

###

Target: rat serum albumin (RSA) (Rattus norvegicus, UniProt P02770)
Sequence (P02770 25-608): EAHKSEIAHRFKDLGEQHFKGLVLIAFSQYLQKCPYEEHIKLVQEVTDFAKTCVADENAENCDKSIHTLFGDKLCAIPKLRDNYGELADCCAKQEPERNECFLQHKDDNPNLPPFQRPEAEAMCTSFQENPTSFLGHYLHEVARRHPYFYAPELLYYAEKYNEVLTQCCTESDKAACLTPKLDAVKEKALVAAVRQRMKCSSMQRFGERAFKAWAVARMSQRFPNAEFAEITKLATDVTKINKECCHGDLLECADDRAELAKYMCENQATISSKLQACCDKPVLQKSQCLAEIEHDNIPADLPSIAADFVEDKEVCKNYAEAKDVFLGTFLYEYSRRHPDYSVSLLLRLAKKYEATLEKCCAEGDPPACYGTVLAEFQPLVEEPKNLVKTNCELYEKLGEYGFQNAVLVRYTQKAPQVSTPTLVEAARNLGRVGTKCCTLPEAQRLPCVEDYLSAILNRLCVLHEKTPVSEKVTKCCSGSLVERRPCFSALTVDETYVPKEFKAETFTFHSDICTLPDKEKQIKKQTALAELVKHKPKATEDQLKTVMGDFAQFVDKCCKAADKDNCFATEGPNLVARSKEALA
Experiment: Presaturation equilibrium dialysis, fraction unbound in rat serum albumin solution
Details: rat, isolated protein, Fraction Unbound (fu) and Coefficient of Variance (CV), RSA, 4% rat serum albumin in PBS, 5 μM PFAS, value (CV)
Procedure: The equilibrium dialysis device (EQD) HTD96 (Gales Ferry, CT, USA) was assembled according to manufacturer instructions. […] Each PFAS:matrix combination was assessed in quadruplicate. […] LC-MS/MS analyses were performed on a SCIEX Triple Quad 5500 mass spectrometer (SCIEX, Concord, ON, Canada) equipped with Turbo Ion Spray interface. […] Multiple-reaction-monitoring (MRM) mode using specific precursor/product ion transitions was used for quantification. […]
measured endpoint: fraction unbound at 18 h, 5 µM
Answers are plain numbers.

### Prompt Report measured fraction unbound at 18 h, 5 µM; entry is "O=C(O)C(F)(F)C(F)(F)C(F)(F)C(F)(F)C(F)(F)C(F)(F)F"
### Response 0.00313
